Hello, the source for this data is PubChem BioAssay (NCATS), in case you need it.

- assay-explanation: qHTS assay for small molecule activators of the p53 signaling pathway (AID 651743); note: series mostly up to about 92 µM; % of control where 0% means no effect
- run-parameters: HCT-116 p53RE-bla, beta-lactamase FRET ratio, 16 h; stronger effect = higher value
Records with an inconclusive call do not appear.
endpoint-label: activation (%)
One number for each entry, in %.

[
  {
    "compound": "Cc1c(F)c(F)c(COC(=O)C2C(/C=C(\\Cl)C(F)(F)F)C2(C)C)c(F)c1F (configuration not stated)",
    "reported-result": -3.48
  },
  {
    "compound": "COP(=O)(OC)O/C(C)=C/C(=O)N(C)C",
    "reported-result": -0.0413
  },
  {
    "compound": "CC1=C(C(=O)Nc2ccccc2)SCCO1",
    "reported-result": 1.21
  },
  {
    "compound": "CCOC(=O)Nc1cccc(OC(=O)Nc2ccccc2)c1",
    "reported-result": -3.18
  }
]

Each compound below has a recorded value; state its activation.
1. CCCSP(=O)(OCC)Oc1ccc(Br)cc1Cl (configuration not stated)
2. CCOc1nc(NC)nc(NC(=O)NS(=O)(=O)c2ccccc2C(=O)OC)n1
3. CC(C)C1(C)N=C(c2nc3ccccc3cc2C(=O)O)NC1=O (configuration not stated)
4. COC(=O)c1sccc1S(=O)(=O)NC(=O)Nc1nc(C)nc(OC)n1
5. COc1ccc(O)c(C(C)(C)C)c1
6. Clc1ccc(-c2cc(Cl)c(Cl)cc2Cl)cc1Cl
7. CCOP(=S)(OCC)SCn1nnc2ccccc2c1=O

3.94
-5.96
1.69
-3.25
1.43
-5.87
2.43

Each compound below has a recorded value; state its activation.
1. COc1cc(OC)nc(NC(=O)NS(=O)(=O)c2cc(NC=O)ccc2C(=O)N(C)C)n1
2. COc1nc(C)nc(NC(=O)NS(=O)(=O)c2ccccc2CCC(F)(F)F)n1
3. COc1ccc(C(O)(c2cncnc2)C2CC2)cc1 (configuration not stated)
4. O=P(O)(O)CN(CP(=O)(O)O)CP(=O)(O)O
5. Nc1ccc([N+](=O)[O-])cc1Cl
6. O=[N+]([O-])C(Br)Br
7. O=C(O)C(F)(F)C(F)(F)C(F)(F)C(F)(F)C(F)(F)C(F)(F)C(F)(F)C(F)(F)C(F)(F)F
8. CCOP(=O)(NC(C)C)Oc1ccc(S(C)(=O)=O)c(C)c1 (configuration not stated)

-3.45
1.94
-2.74
-5.96
-0.946
12.3
5.35
0.006
